# EXPERIMENTAL_SYSTEM: EGFR^WT (Homo sapiens)
# Sequence (P00533 25-1210): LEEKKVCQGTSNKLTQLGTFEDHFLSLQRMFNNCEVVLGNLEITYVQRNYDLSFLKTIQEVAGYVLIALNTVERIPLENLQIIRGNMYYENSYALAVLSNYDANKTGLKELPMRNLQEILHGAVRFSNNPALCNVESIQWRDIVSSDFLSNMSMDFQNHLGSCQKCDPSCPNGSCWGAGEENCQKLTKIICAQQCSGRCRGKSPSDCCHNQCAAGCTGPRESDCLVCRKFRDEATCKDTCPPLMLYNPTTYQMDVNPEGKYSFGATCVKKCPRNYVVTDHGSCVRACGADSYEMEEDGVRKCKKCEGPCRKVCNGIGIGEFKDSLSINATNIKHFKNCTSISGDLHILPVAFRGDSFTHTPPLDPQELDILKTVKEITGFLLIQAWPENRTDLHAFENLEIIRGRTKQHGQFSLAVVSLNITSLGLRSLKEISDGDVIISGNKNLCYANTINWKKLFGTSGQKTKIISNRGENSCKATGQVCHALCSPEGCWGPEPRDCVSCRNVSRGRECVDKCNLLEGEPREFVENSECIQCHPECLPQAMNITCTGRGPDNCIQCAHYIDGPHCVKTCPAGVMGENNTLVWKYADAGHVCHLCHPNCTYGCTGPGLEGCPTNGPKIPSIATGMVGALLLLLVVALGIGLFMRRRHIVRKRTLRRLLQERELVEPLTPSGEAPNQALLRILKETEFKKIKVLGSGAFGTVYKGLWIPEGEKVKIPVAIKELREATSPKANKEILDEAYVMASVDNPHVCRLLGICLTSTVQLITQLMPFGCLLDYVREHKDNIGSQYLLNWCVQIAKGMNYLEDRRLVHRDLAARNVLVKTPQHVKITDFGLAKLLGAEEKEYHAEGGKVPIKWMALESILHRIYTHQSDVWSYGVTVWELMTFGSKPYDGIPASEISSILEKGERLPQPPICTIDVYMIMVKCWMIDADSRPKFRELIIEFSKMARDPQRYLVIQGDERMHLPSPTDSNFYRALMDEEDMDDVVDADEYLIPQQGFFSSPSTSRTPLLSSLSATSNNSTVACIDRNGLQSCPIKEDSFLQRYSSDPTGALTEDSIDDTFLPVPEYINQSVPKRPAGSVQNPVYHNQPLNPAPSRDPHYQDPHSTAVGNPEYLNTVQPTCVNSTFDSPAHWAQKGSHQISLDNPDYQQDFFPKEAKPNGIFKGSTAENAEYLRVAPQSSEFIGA
# EXPERIMENT_NOTES: EGFR^wt kinase inhibition assay
# Format: biochemical
pIC50: −log10 of the molar value.
MEASUREMENT_TYPE: pIC50

MOLECULE	MEASURED
Cc1nnc2c(Oc3ccc(NC(=O)c4cnn(-c5ccc(Cl)cc5)c4C(F)(F)F)cc3F)nccn12 [17l]	< 5.00

---

# EXPERIMENTAL_SYSTEM: c-Met kinase (Homo sapiens)
# Sequence (P08581 25-1390): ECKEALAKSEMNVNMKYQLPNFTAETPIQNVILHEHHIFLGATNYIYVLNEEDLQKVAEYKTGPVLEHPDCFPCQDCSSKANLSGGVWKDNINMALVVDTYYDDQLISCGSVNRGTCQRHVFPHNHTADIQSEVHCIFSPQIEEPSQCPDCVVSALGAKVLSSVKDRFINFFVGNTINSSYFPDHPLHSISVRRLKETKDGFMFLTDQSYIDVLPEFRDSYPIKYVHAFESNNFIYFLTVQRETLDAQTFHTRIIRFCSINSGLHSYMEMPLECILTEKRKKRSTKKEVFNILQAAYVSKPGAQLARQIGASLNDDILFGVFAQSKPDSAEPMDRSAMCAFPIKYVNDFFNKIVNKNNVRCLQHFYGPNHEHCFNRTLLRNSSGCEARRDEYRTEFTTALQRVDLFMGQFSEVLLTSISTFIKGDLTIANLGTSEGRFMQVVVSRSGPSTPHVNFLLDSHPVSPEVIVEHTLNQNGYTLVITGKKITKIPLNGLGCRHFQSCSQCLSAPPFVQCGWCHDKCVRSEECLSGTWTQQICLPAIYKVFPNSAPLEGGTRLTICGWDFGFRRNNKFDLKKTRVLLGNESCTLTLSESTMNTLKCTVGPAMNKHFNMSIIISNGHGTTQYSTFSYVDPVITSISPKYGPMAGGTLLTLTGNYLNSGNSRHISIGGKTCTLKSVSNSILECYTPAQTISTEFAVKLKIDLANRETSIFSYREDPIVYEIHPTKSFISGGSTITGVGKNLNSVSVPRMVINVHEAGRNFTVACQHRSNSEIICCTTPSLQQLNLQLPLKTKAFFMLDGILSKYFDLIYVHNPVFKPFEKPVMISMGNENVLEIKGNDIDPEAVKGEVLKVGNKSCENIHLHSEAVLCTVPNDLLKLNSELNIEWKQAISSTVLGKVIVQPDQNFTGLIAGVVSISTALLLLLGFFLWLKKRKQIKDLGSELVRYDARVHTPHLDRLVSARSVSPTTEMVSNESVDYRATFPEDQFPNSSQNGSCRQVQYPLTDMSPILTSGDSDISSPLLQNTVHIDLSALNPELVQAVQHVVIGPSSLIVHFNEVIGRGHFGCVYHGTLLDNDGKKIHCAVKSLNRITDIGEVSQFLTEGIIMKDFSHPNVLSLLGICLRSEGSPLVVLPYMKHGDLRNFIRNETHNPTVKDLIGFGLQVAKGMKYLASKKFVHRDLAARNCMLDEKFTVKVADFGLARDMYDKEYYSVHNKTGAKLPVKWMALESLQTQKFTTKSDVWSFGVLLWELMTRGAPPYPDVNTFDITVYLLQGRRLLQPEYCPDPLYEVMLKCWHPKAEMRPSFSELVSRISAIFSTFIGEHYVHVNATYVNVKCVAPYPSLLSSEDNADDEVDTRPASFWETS
pIC50: −log10 of the molar value.
MEASUREMENT_TYPE: pIC50

COMPOUND	MEASURED
Cc1nnc2c(Oc3ccc(NC(=O)c4cnn(-c5ccc(Cl)cc5)c4C(F)(F)F)cc3F)nccn12 [17l]	7.59
Cc1nnc2c(Oc3ccc(NC(=O)c4cnn(-c5ccc(Cl)cc5)c4C(F)(F)F)cc3)nccn12 [17e]	7.11
Cc1nc(-c2ccncc2)sc1C(=O)Nc1ccc(Oc2nccn3cnnc23)cc1 [16c]	6.46
